B1: Nuclear receptor subfamily 1 group D member 2, residues 103 to 171; numbered along this chain, Q14995 (parent)
chain: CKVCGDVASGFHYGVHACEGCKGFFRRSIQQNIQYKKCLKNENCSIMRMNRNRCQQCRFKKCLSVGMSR

variants of: B1; assay: abundance fitness (aPCA) (normalised: wild type 0, dead -1); higher = more abundant; growth selection in yeast, the domain comes from the species named; conditions: Homo sapiens
TEST READOUT: abundance fitness

CKVCGDVASGFHYGVHACEGCKGFFRHSIQQNIQYKKCLKNENCSIMRMNRNRCQQCRFKKCLSVGMSR: 0.305
CKVCGDVASGFHYGVHACEGCKGFFRRSIQQNIQYKKDLKNENCSIMRMNRNRCQQCRFKKCLSVGMSR: -0.894
CKVCGDVASGFHYGVHACEGCKGFFRRSIQQNIQYKKCLKNENCSIMRMNRNRCQQARFKKCLSVGMSR: -0.738
CKVCGDVASGFHYGVHACEGCKGFFRRSIQQNIQYKKCLKNENCSIMRMNRNRCQQCRFKKCLSVGGSR: -0.744
CKVCGDVASGFHYGVHACEGCKGFFRRSIQQNIQYKKCLKNENCSIMRMNRNRCQQCRFSKCLSVGMSR: -0.284

Exam item: Using the record for CKVCGDVASGFHYGVHACEGCKGFFRRSVQQNIQYKKCLKNENCSIMRMNRNRCQQCRFKKCLSVGMSR , report its abundance fitness.
Marked response: -0.17

Exam item: Item under review: CKVCGDVASGFHYGVHACEGCKGFFRRSIQQNIQYKKCLKNENCSIMRMNRNRCQKCRFKKCLSVGMSR . Reported abundance fitness?
Marked response: -0.3

Exam item: Endpoint output: abundance fitness of CKVCGDVASGFHYGVHACEGCKGFFRRSIQQNIQYKKCLKNENCSIPRMNRNRCQQCRFKKCLSVGMSR . Value?
Marked response: -0.237
